Hey, just so you know, these numbers are from patent US20220411362A1.

Target: C1b domain of human PKD1 (PKCμ) (Homo sapiens, UniProt Q15139)
Construct: Genes encoding C1b domains of human PKCα, δ, ε, θ, and PKD1 (PKCμ) were synthesized; made in house; host or cells: E. coli BL21(DE3)
Sequence (Q15139 270-320 limits assumed): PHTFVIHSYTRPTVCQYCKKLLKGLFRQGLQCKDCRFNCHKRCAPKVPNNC
Experiment: biochemical
Type: binding
Experimental: Compounds described in this disclosure were tested for binding affinity to C1b domain of PKC isoforms. […] The plate was incubated at 37° C. on a shaker at 300 rpm for 10 minutes and then put on ice for 20 minutes. […] The bottom of the filter plate was sealed and 50 μL of MicroScint-20 (PerkinElmer) cocktail was added to each well. ^3H-PDBu trapped in each well was counted using PerkinElmer MicroBeta2 Reader. […] Kd is the binding affinity of each protein preparation to ^3H-PDBu, determined experimentally.

chem smiles: CC1=C[C@H]2[C@@]3(O)[C@H](C)C[C@]4(OC(=O)[C@H](N)CCc5ccc(C(F)(F)F)cc5)[C@H]([C@@H]3C=C(CO)C[C@]2(O)C1=O)C4(C)C
Ki: 1 to 30 nM

chem smiles: CC1=C[C@H]2[C@@]3(O)[C@H](C)C[C@]4(OC(=O)CCc5ccc(C(F)(F)F)cc5)[C@H]([C@@H]3C=C(CO)C[C@]2(O)C1=O)C4(C)C
Ki: < 5 nM

chem smiles: CC1=C[C@H]2[C@@]3(O)[C@H](C)C[C@]4(OC(=O)/C=C/c5ccc(C(F)(F)F)cc5)[C@H]([C@@H]3C=C(CO)C[C@]2(O)C1=O)C4(C)C
Ki: < 5 nM

====

Assay: Pharmacokinetic study, intravenous bolus injection in rats
Format: in vivo
Conditions: Sprague Dawley, rat plasma, 0.2 mg/kg

chem smiles: CC1=C[C@H]2[C@@]3(O)[C@H](C)C[C@]4(OC(=O)[C@@H](N)CC5CCCCC5)[C@H]([C@@H]3C=C(CO)C[C@]2(O)C1=O)C4(C)C
units: h
MRT inf: 2.93

====

Target: C1b domain of human PKCδ (Homo sapiens)
Construct: Genes encoding C1b domains of human PKCα, δ, ε, θ, and PKD1 (PKCμ) were synthesized; made in house; host or cells: E. coli BL21(DE3)
Sequence (Q05655 230-280 limits assumed): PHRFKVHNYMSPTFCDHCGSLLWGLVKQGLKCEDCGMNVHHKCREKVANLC
Experiment: Competitive 3H-PDBu binding to C1b domain of PKCδ
Conditions: Ki PKCδ, 3H-PDBu competition

compound: CC1=C[C@H]2[C@@]3(O)[C@H](C)C[C@]4(OC(=O)CC5CC6(CNC6)C5)[C@H]([C@@H]3C=C(CO)C[C@]2(O)C1=O)C4(C)C [Compound K101-C1306]
assayed system: C1b domain of human PKCδ (Homo sapiens)
Ki: 100 to 200 nM
//
compound: CC1=C[C@H]2[C@@]3(O)[C@H](C)C[C@]4(OC(=O)C(C)(C)C)[C@H]([C@@H]3C=C(CO)C[C@]2(O)C1=O)C4(C)C [Compound K101-C1308]
assayed system: C1b domain of human PKCδ (Homo sapiens)
Ki: 1 to 30 nM
//
compound: CC1=C[C@H]2[C@@]3(O)[C@H](C)C[C@]4(OC(=O)[C@@H](N)C(C)(C)C)[C@H]([C@@H]3C=C(CO)C[C@]2(O)C1=O)C4(C)C [Compound K101-C1346]
assayed system: C1b domain of human PKCδ (Homo sapiens)
Ki: 1 to 30 nM
//
compound: CC1=C[C@H]2[C@@]3(O)[C@H](C)C[C@]4(OC(=O)CCCCCCCCCCC(=O)O)[C@H]([C@@H]3C=C(CO)C[C@]2(O)C1=O)C4(C)C [Compound K101-C1334]
assayed system: C1b domain of human PKCδ (Homo sapiens)
Ki: 400 to 800 nM
//
compound: CC1=C[C@H]2[C@@]3(O)[C@H](C)C[C@]4(OC(=O)/C=C/c5ccc(C(F)(F)F)cc5)[C@H]([C@@H]3C=C(CO)C[C@]2(O)C1=O)C4(C)C [Compound K101-C1313]
assayed system: C1b domain of human PKCδ (Homo sapiens)
Ki: 1 to 30 nM
//
compound: CC1=C[C@H]2[C@@]3(O)[C@H](C)C[C@]4(OC(=O)[C@H](N)CCCCCCCCc5ccccc5)[C@H]([C@@H]3C=C(CO)C[C@]2(O)C1=O)C4(C)C [Compound K101-C136101]
assayed system: C1b domain of human PKCδ (Homo sapiens)
Ki: 1 to 30 nM
//
compound: CCCCCCCCCCCCCCCCCCC(CC(=O)O[C@@]12C[C@@H](C)[C@@]3(O)[C@@H](C=C(CO)C[C@]4(O)C(=O)C(C)=C[C@@H]34)[C@@H]1C2(C)C)C(=O)O (stereo partly shown) [Compound K101-C1352]
assayed system: C1b domain of human PKCδ (Homo sapiens)
Ki: 200 to 400 nM

====

Molecular target: C1b domain of human PKCα (Homo sapiens, UniProt P17252)
Construct: Genes encoding C1b domains of human PKCα, δ, ε, θ, and PKD1 (PKCμ) were synthesized; made in house; host or cells: E. coli BL21(DE3)
Assay: biochemical
Format: binding
Settings: Ki PKCα, 3H-PDBu competition
// values below are reported Ki

chem smiles: CC1=C[C@H]2[C@@]3(O)[C@H](C)C[C@]4(OC(=O)[C@@H](O)Cc5ccccc5)[C@H]([C@@H]3C=C(CO)C[C@]2(O)C1=O)C4(C)C
Ki: 1 to 2 µM
--
chem smiles: CC1=C[C@H]2[C@@]3(O)[C@H](C)C[C@]4(OC(=O)CCc5ccncc5)[C@H]([C@@H]3C=C(CO)C[C@]2(O)C1=O)C4(C)C
Ki: > 8 µM
--
chem smiles: CC1=C[C@H]2[C@@]3(O)[C@H](C)C[C@]4(OC(=O)C[C@@H](N)CCc5ccccc5)[C@H]([C@@H]3C=C(CO)C[C@]2(O)C1=O)C4(C)C
Ki: 0.4 to 0.8 µM
--
chem smiles: CC1=C[C@H]2[C@@]3(O)[C@H](C)C[C@]4(OC(=O)[C@H](N)C(C)(C)c5ccc(C(F)(F)F)cc5)[C@H]([C@@H]3C=C(CO)C[C@]2(O)C1=O)C4(C)C
Ki: 0.2 to 0.4 µM
--
chem smiles: CC1=C[C@H]2[C@@]3(O)[C@H](C)C[C@]4(OC(=O)[C@@H](N)[C@]56C[C@H]7C[C@H](C[C@H](C7)C5)C6)[C@H]([C@@H]3C=C(CO)C[C@]2(O)C1=O)C4(C)C
Ki: 0.001 to 0.03 µM

====

Assay: Pharmacokinetic study, intravenous bolus injection in rats
Type: in vivo
Conditions: Sprague Dawley, rat, plasma, iv, 0.2 mg/kg, rat plasma, 0.2 mg/kg, read-out: Vss

chem smiles: CC1=C[C@H]2[C@@]3(O)[C@H](C)C[C@]4(OC(=O)[C@@H](N)CC5CCCCC5)[C@H]([C@@H]3C=C(CO)C[C@]2(O)C1=O)C4(C)C
units: L/kg
Vd: 2.77

====

// values below are reported Ki
Molecular target: C1b domain of human PKCδ (Homo sapiens)
Construct: Genes encoding C1b domains of human PKCα, δ, ε, θ, and PKD1 (PKCμ) were synthesized; made in house; host or cells: E. coli BL21(DE3)
Assay: Competitive 3H-PDBu binding to C1b domain of PKCδ
Details: Ki PKCδ, 3H-PDBu competition
reported endpoint: Ki

chem smiles: CC1=C[C@H]2[C@@]3(O)[C@H](C)C[C@]4(OC(=O)C[C@H](N)Cc5ccccc5)[C@H]([C@@H]3C=C(CO)C[C@]2(O)C1=O)C4(C)C
reported endpoint: Ki
reported measurement: 1 to 30 nM
//
chem smiles: CC1=C[C@H]2[C@@]3(O)[C@H](C)C[C@]4(OC(=O)C[C@@H](N)Cc5ccccc5)[C@H]([C@@H]3C=C(CO)C[C@]2(O)C1=O)C4(C)C
reported endpoint: Ki
reported measurement: 30 to 60 nM
//
chem smiles: CC1=C[C@H]2[C@@]3(O)[C@H](C)C[C@]4(OC(=O)C[C@@H](N)CCc5ccccc5)[C@H]([C@@H]3C=C(CO)C[C@]2(O)C1=O)C4(C)C
reported endpoint: Ki
reported measurement: 1 to 30 nM
//
chem smiles: CC1=C[C@H]2[C@@]3(O)[C@H](C)C[C@]4(OC(=O)[C@H](N)CCCCCCc5ccccc5)[C@H]([C@@H]3C=C(CO)C[C@]2(O)C1=O)C4(C)C
reported endpoint: Ki
reported measurement: 5 to 10 nM
//
chem smiles: CC1=C[C@H]2[C@@]3(O)[C@H](C)C[C@]4(OC(=O)[C@H](N)Cc5ccccc5)[C@H]([C@@H]3C=C(CO)C[C@]2(O)C1=O)C4(C)C
reported endpoint: Ki
reported measurement: 100 to 200 nM

====

Molecular target: C1b domain of human PKD1 (PKCμ) (Homo sapiens, UniProt Q15139)
Construct: Genes encoding C1b domains of human PKCα, δ, ε, θ, and PKD1 (PKCμ) were synthesized; made in house; host or cells: E. coli BL21(DE3)
Experiment: biochemical
Format: binding

compound: CC1=C[C@H]2[C@@]3(O)[C@H](C)C[C@]4(OC(=O)C(C)(C)C)[C@H]([C@@H]3C=C(CO)C[C@]2(O)C1=O)C4(C)C
Ki: 5 to 10 nM
//
compound: CC1=C[C@H]2[C@@]3(O)[C@H](C)C[C@]4(OC(=O)C(Cc5ccccc5)C(=O)O)[C@H]([C@@H]3C=C(CO)C[C@]2(O)C1=O)C4(C)C (stereo partly drawn)
Ki: 4000 to 6000 nM
//
compound: CC1=C[C@H]2[C@@]3(O)[C@H](C)C[C@]4(OC(=O)[C@@H](N)CCCc5ccccc5)[C@H]([C@@H]3C=C(CO)C[C@]2(O)C1=O)C4(C)C
Ki: < 5 nM
